# targetDesc: Virion infectivity factor (Human immunodeficiency virus type 1 group M subtype B (isolate BH10)) + Virion infectivity factor (Human immunodeficiency virus type 1 group M subtype B (isolate BRU/LAI)) + Virion infectivity factor (Human immunodeficiency virus type 1 group M subtype B (isolate PCV12)) + Virion infectivity factor (Human immunodeficiency virus type 1 group M subtype B (isolate HXB2)) + DNA dC->dU-editing enzyme APOBEC-3G (Homo sapiens) (UniProt P69720+P69721+P69722+P69723+Q9HC16)
# testName: HIV-1 Vif–A3G interaction blockers – biochemical, TR-FRET, GST-Vif 1-94, biotin-A3G peptide, dose response retest, primary screen (AID 1117319);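 note: Vif residues 1-94 fused to GST binding biotinylated APOBEC3G peptide 110-148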
# testConditions: TR-FRET GST-Vif / biotin-A3G peptide binding
Inconclusive results are not listed.
metric: IC50

Solved entries:
1. COc1ccc(C2=NOC(C(=O)NCc3cccs3)C2)cc1OC (stereo unspecified) : 89.8 µM
2. NC(=O)c1c(NC(=O)c2ccc(S(=O)(=O)N3CCOCC3)cc2)sc2c1CCCCC2 : 98.3 µM
3. CC1C=CC=CC=CC=CC=CC=CC=CC(OC2OC(C)C(O)C(N)C2O)CC2OC(O)(CC(O)CC(O)C(O)CCC(O)CC(O)CC(=O)OC(C)C(C)C1O)CC(O)C2C(=O)O (stereo unspecified) : 0.87 µM
4. COc1ccc2nc(-c3ccco3)c(-c3ccco3)nc2c1 : 0.35 µM

For every item in the list below, what is its measured IC50?
1. CCOC(=O)C1CCN(C(c2cccs2)c2sc3nc(C)nn3c2O)CC1 (stereo unspecified)
2. O=C1NC(=O)N(Cc2ccco2)C(=O)/C1=C/C=C/c1ccco1
3. Cc1ccc(C=C2C(Cl)=C(Cl)C(Cl)=C2Cl)cc1
4. C=C(c1ccc(OCCO)cc1)c1ccc(OCCO)cc1
5. COC(=O)C1=C(N)OC2=C(C(=O)CCC2)C1c1cccs1 (stereo unspecified)

Outgoing:
1. 55.7 µM
2. 0.91 µM
3. 2.1 µM
4. 56.6 µM
5. 44.8 µM

For every item in the list below, what is its measured IC50?
1. O=C(O)C1OC(Oc2c(-c3ccc(O)c(O)c3)oc3cc(O)cc(O)c3c2=O)C(O)C(O)C1O (stereo unspecified)
2. CC(C)C(=O)Nc1nnc(Sc2ccc(N(C)C)cc2)s1

Outgoing:
["2.7 µM", "54.8 µM"]

---

# targetDesc: Virion infectivity factor (Human immunodeficiency virus type 1 group M subtype B (isolate BH10)) + Virion infectivity factor (Human immunodeficiency virus type 1 group M subtype B (isolate BRU/LAI)) + Virion infectivity factor (Human immunodeficiency virus type 1 group M subtype B (isolate PCV12)) + Virion infectivity factor (Human immunodeficiency virus type 1 group M subtype B (isolate HXB2)) + DNA dC->dU-editing enzyme APOBEC-3G (Homo sapiens) (UniProt P69720+P69721+P69722+P69723+Q9HC16)
# testName: HIV-1 Vif–A3G interaction blockers – biochemical, TR-FRET, GST-Vif 1-94, biotin-A3G peptide, dose response retest, primary screen (AID 1117319);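 note: Vif residues 1-94 fused to GST binding biotinylated APOBEC3G peptide 110-148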
# testConditions: TR-FRET GST-Vif / biotin-A3G peptide binding
Records with an inconclusive call do not appear.
metric: IC50

Solved entries:
1. Cc1cc(NC(=O)CCNS(=O)(=O)c2cc(Br)cnc2N)ccc1Br : 35.2 µM
2. C=CC(=O)N1C/C(=C/c2ccc(F)cc2)C(=O)/C(=C\c2ccc(F)cc2)C1 : 7.41 µM
3. CCC(C)C(NC(=O)[C@@H](NC(=O)c1ccccc1F)C(C)C)C(=O)OC (stereo partly specified) : 5.83 µM
4. COC(=O)CSc1nnc(CNC(=O)Cc2ccccc2)n1-c1ccccc1OC : 77.7 µM
5. CCN(CC)c1ccc(NC2=C(Cl)C(=O)c3ccccc3C2=O)cc1 : 3.81 µM

For every item in the list below, what is its measured IC50?
1. COC(=O)CCC(=O)OC1(C)C(=O)C=C2C=C3CCCN3C=C2C1=O (stereo unspecified)
2. Cc1cc(C(=O)CN2C(=O)c3ccccc3S2(=O)=O)c(C)n1CC1CCCO1 (stereo unspecified)
3. N#CC1=C(N)C2=C(N3CCCCC3)CCCC2C1(C#N)C#N (stereo unspecified)
4. CC1=CC2(O)OCCN(CCO)C2=CC1=O (stereo unspecified)
5. O=C(COC(=O)c1ccc(NS(=O)(=O)c2cccs2)cc1)NCc1ccco1
6. CC(C)(C)C(=O)OCc1nc(-c2ccc(O)c(O)c2)cs1

Outgoing:
2.23 µM
51.2 µM
1.7 µM
7.05 µM
5.88 µM
17.1 µM

---

Can you tell me pIC50 for the items I'm about to list?
# targetDesc: Virion infectivity factor (Human immunodeficiency virus type 1 group M subtype B (isolate BH10)) + Virion infectivity factor (Human immunodeficiency virus type 1 group M subtype B (isolate BRU/LAI)) + Virion infectivity factor (Human immunodeficiency virus type 1 group M subtype B (isolate PCV12)) + Virion infectivity factor (Human immunodeficiency virus type 1 group M subtype B (isolate HXB2)) + DNA dC->dU-editing enzyme APOBEC-3G (Homo sapiens) (UniProt P69720+P69721+P69722+P69723+Q9HC16)
# testName: HIV-1 Vif–A3G interaction blockers – biochemical, TR-FRET, GST-Vif 1-94, biotin-A3G peptide, dose response retest, primary screen (AID 1117319);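 note: Vif residues 1-94 fused to GST binding biotinylated APOBEC3G peptide 110-148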
# testConditions: TR-FRET GST-Vif / biotin-A3G peptide binding
pIC50: −log10 of the molar value. Inconclusive results are not listed.

Solved entries:
1) COc1cc(C2Nc3cccc4cccc(c34)N2)cc(OC)c1O : > 5.38
2) CC(C)CCNC(=O)c1ccc2c(SCC(=O)O)c3c(nc2c1)CCC3 : 4.22
3) O=C(/C(=N/N=C/c1ccc(O)c(O)c1O)c1ccccc1)c1ccccc1 : 5.50

For every item in the list below, what is its measured pIC50?
1. CCc1ccccc1NC(=O)c1cccc(NC(=O)/C=C/c2ccco2)c1
2. CC(=O)N(C1=C(Cl)C(=O)c2ccccc2C1=O)c1ccc(C(=O)O)cc1
3. NC(=O)C[C@@H]1N[C@]2(C(=O)Nc3ccccc32)[C@@H]2C(=O)N(c3cc(C(F)(F)F)ccc3Cl)C(=O)[C@H]12
4. COc1ccc2c(c1)C(=O)c1ccccc1CO2
5. O=C1CC(Nc2ccc(N3CCOCC3)cc2)C(=O)N1c1ccccc1F (stereo not given)

Outgoing:
[4.97, 4.22, 4.26, 4.28, 5.78]

For every item in the list below, what is its measured pIC50?
1. CC(C)CCNC(=O)Cn1c2c(c(-c3ccccc3Cl)cc1=O)CCC2
2. CCN(CC)c1ccc2oc(=O)c(C)nc2c1

Outgoing:
[4.71, 5.54]

---

# targetDesc: Virion infectivity factor (Human immunodeficiency virus type 1 group M subtype B (isolate BH10)) + Virion infectivity factor (Human immunodeficiency virus type 1 group M subtype B (isolate BRU/LAI)) + Virion infectivity factor (Human immunodeficiency virus type 1 group M subtype B (isolate PCV12)) + Virion infectivity factor (Human immunodeficiency virus type 1 group M subtype B (isolate HXB2)) + DNA dC->dU-editing enzyme APOBEC-3G (Homo sapiens) (UniProt P69720+P69721+P69722+P69723+Q9HC16)
# testName: HIV-1 Vif–A3G interaction blockers – biochemical, TR-FRET, GST-Vif 1-94, biotin-A3G peptide, dose response retest, primary screen (AID 1117319);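 note: Vif residues 1-94 fused to GST binding biotinylated APOBEC3G peptide 110-148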
# testConditions: TR-FRET GST-Vif / biotin-A3G peptide binding
Records with an inconclusive call do not appear.
metric: IC50

1) CN(C)c1ccc(Cc2cc3c(O)ccc(O)c3cc(Cc3ccc(N(C)C)cc3)c2=O)cc1 : 0.87 µM
2) Cn1nnnc1SCC(=O)NCc1ccco1 : 42.8 µM
3) Cc1nc2ccc(NC(=O)Cc3cccs3)cc2s1 : 84 µM

For every item in the list below, what is its measured IC50?
1. Cc1cc(C)c([N+](=O)[O-])cc1-c1ccc(/C=N/NC(=O)c2nonc2N)o1
2. Cc1c(NC(=O)c2cc(-c3cccs3)on2)c(=O)n(-c2ccccc2)n1C
3. FC(F)(F)C1=Nc2cccc3cccc(c23)N1
4. Cc1ccc(Nc2cnn(C34CC5CC(CC(CC(=O)O)(C5)C3)C4)c(=O)c2Cl)cc1C
5. C[C@H]1c2cccc(O)c2C(O)=C2C(=O)[C@]3(O)C(O)=C(C(N)=O)C(=O)[C@@H](N(C)C)[C@@H]3[C@@H](O)[C@@H]21
6. CC(C)(CS(=O)(=O)[O-])NC(=O)CC[N+](C)(C)CCO
7. O=C(O)COc1ccc2c(c1)O/C(=C\c1ccco1)C2=O

Outgoing:
1: 52.7 µM; 2: 39.9 µM; 3: 5.95 µM; 4: 96.6 µM; 5: 13.6 µM; 6: 1.5 µM; 7: 22.5 µM

---

# targetDesc: Virion infectivity factor (Human immunodeficiency virus type 1 group M subtype B (isolate BH10)) + Virion infectivity factor (Human immunodeficiency virus type 1 group M subtype B (isolate BRU/LAI)) + Virion infectivity factor (Human immunodeficiency virus type 1 group M subtype B (isolate PCV12)) + Virion infectivity factor (Human immunodeficiency virus type 1 group M subtype B (isolate HXB2)) + DNA dC->dU-editing enzyme APOBEC-3G (Homo sapiens) (UniProt P69720+P69721+P69722+P69723+Q9HC16)
# testName: HIV-1 Vif–A3G interaction blockers – biochemical, TR-FRET, GST-Vif 1-94, biotin-A3G peptide, dose response retest, primary screen (AID 1117319);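 note: Vif residues 1-94 fused to GST binding biotinylated APOBEC3G peptide 110-148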
# testConditions: TR-FRET GST-Vif / biotin-A3G peptide binding
Inconclusive results are not listed.
metric: IC50

1) CCOc1cccc(=O)c2c(C)n(Cc3ccco3)c(C)c12 : 0.45 µM
2) Nc1cc(N)nc(SCc2cc([N+](=O)[O-])cc3c2OCOC3)n1 : 74.1 µM

For every item in the list below, what is its measured IC50?
1. N#C/C(C(N)=O)=c1/ccc2c(c1)N1C3=C(CCCC3)CC3CCCCC31N=2 (stereo not given)
2. O=C1NC(=O)C(=CN2CCc3ccccc32)C(=O)N1

Outgoing:
28.2 µM
91.3 µM

For every item in the list below, what is its measured IC50?
1. Cn1cccc1/C=C1\CCC/C(=C\c2cccn2C)C1=O
2. O=C1CCCC(O)=C1N=Nc1ccc(S(=O)(=O)N2CCOCC2)cc1

Outgoing:
1. 3.09 µM
2. 6.66 µM

For every item in the list below, what is its measured IC50?
1. CCc1ccc(N2C(=O)NC(=O)/C(=C\C=C\c3ccco3)C2=O)cc1
2. CCCc1cc(=O)oc2cc(C)c(CN3CCCC3)c(O)c12
3. COc1ccc(C2CC(=O)Nc3cc(C)c(C)cc32)c(OC)c1OC (stereo not given)
4. N#CC1=C(Nc2ccccc2)SC=C(c2ccc(Br)cc2)N=C1N1CCOCC1
5. Cc1ccc(N/N=C/c2c(C)c(C#N)c(=O)n(C)c2O)cc1C
6. COCCNC(=O)Nc1ccc2nc(-c3ccco3)c(-c3ccco3)nc2c1
7. CC(C)CN(C(=O)CN1CCN(c2ccc(O)cc2)CC1)c1c(N)n(CC(C)C)c(=O)[nH]c1=O
8. Cc1ccc(/C=C/C2=Cc3c(sc(NC(=O)CSc4n[nH]c(N)n4)c3C#N)C(C)(C)C2)o1

Outgoing:
1: 7.09 µM; 2: 3.46 µM; 3: 63.5 µM; 4: 97.1 µM; 5: 91.3 µM; 6: 0.25 µM; 7: 12.3 µM; 8: 0.8 µM

For every item in the list below, what is its measured IC50?
1. CN(C)c1ccc(NC(=O)Cn2cc3c(n2)CCCC3)cc1
2. CC(C)N1C(=O)/C(=C/C=C/c2ccco2)C(=O)N(Cc2ccco2)C1=O
3. CN1CCc2cccc3c2[C@H]1Cc1ccc(O)c(O)c1-3
4. O=C1NC(=O)C(=Cc2ccco2)C(=O)N1
5. Cc1ccc(/C=c2\sc3nc(-c4cccs4)nn3c2=O)o1
6. CCN(CC)C(=O)c1ccc2c(c1)C1C=CCC1C(C(=O)O)N2 (stereo not given)

Outgoing:
1: 6.08 µM; 2: 2.19 µM; 3: 0.89 µM; 4: 19.9 µM; 5: 13.2 µM; 6: 2.81 µM
